Ref: ChEMBL document CHEMBL2439991

tested on: T47D; experiment: Cytotoxicity against human T47D cells after 72 hrs by MTT assay; assay type: functional
measurement label: GI50

As a guide, the following entries are already answered.
>>> print(df.to_string())
                              smiles_entry  observed_measurement
0   COc1ccc(CNC(=O)Nc2ccc(OC)c(OC)c2)cc1OC              > 100 µM
1  COc1ccc(CCNC(=O)Cc2ccc(OC)c(OC)c2)cc1OC              > 100 µM

The recorded GI50 for entry COc1ccc(CN2CCc3cc(OC)c(OC)cc3C2)cc1OC equals 45.4 µM

###

tested on: T47D; experiment: Cytotoxicity against human T47D cells after 72 hrs by MTT assay; type: functional
For each record, write down the corresponding GI50.

As a guide, the following entries are already answered.
>>> df
                                   molecule  observed_measurement
0  COc1ccc(NS(=O)(=O)c2ccc(OC)c(OC)c2)cc1OC              > 100 µM
1    COc1ccc(CNC(=O)Cc2ccc(OC)c(OC)c2)cc1OC              > 100 µM
2  COc1ccc(/C=C2/CCc3cc(OC)c(OC)cc32)cc1OC (mixture of isomers)               4.24 µM
3     COc1ccc(NC(=O)Nc2ccc(OC)c(OC)c2)cc1OC               > 50 µM
4     COc1ccc(CNC(=O)c2ccc(OC)c(OC)c2)cc1OC              > 100 µM

Go through the items and report each one's GI50.
1. COc1ccc(CCNC(=O)c2ccc(OC)c(OC)c2)cc1OC
2. COc1ccc(C[C@@H](C)[C@@H](C)Cc2ccc(OC)c(OC)c2)cc1OC [TERAMEPROCOL]
3. COc1ccc(C(=O)N2CCc3cc(OC)c(OC)cc3C2)cc1OC
4. COc1ccc(CCNS(=O)(=O)c2ccc(OC)c(OC)c2)cc1OC
5. COc1ccc(C2=NCCc3cc(OC)c(OC)cc32)cc1OC

stdout:
1: > 100 µM; 2: 5.36 µM; 3: 11.9 µM; 4: > 100 µM; 5: > 100 µM

The recorded GI50 for entry COc1ccc(C(=O)C2=NCCc3cc(OC)c(OC)cc32)cc1OC equals 16.1 µM

###

test: Cytotoxicity against human U87 cells after 72 hrs by MTT assay; type: functional, U-87MG ATCC; settings: U-87 MG
measurement label: GI50

As a guide, the following entries are already answered.
>>> print(df.to_string())
                                   compound  observed_measurement
0  COc1ccc([C@H]2O[C@H](c3ccc(OC)c(OC)c3)[C@@H](C)[C@H]2C)cc1OC               > 75 µM
1   COc1ccc(/C=C/C=C/c2ccc(OC)c(OC)c2)cc1OC              > 100 µM
2    COc1ccc(CNC(=O)Cc2ccc(OC)c(OC)c2)cc1OC              > 100 µM
3  COc1ccc(C(=O)C2=NCCc3cc(OC)c(OC)cc32)cc1OC              > 100 µM
4  COc1ccc(S(=O)(=O)N2CCc3cc(OC)c(OC)cc3C2)cc1OC               > 50 µM
5  COc1ccc(C2NCCc3cc(OC)c(OC)cc32)cc1OC (stereo unspecified)              > 100 µM
6    COc1ccc(CNC(=O)Nc2ccc(OC)c(OC)c2)cc1OC              > 100 µM
7  COc1ccc(NS(=O)(=O)c2ccc(OC)c(OC)c2)cc1OC              > 100 µM

Go through the items and report each one's GI50.
1. COc1ccc(/C=C/C(=O)Nc2ccc(OC)c(OC)c2)cc1OC
2. COc1ccc(CCNC(=O)Cc2ccc(OC)c(OC)c2)cc1OC
3. COc1ccc(CC(=O)N2CCc3cc(OC)c(OC)cc3C2)cc1OC

stdout:
1: > 50 µM; 2: > 100 µM; 3: > 100 µM
